- STUDY TARGET: T1, human EphA7 (Homo sapiens, UniProt Q15375)
- T1 construct: a protein of the extracellular region of each human Eph receptor fused with the SEAP protein and the His tag; made in house; host or cells: Expi293F cells (culture supernatant)
- T1 sequence (Q15375 28-555 limits assumed): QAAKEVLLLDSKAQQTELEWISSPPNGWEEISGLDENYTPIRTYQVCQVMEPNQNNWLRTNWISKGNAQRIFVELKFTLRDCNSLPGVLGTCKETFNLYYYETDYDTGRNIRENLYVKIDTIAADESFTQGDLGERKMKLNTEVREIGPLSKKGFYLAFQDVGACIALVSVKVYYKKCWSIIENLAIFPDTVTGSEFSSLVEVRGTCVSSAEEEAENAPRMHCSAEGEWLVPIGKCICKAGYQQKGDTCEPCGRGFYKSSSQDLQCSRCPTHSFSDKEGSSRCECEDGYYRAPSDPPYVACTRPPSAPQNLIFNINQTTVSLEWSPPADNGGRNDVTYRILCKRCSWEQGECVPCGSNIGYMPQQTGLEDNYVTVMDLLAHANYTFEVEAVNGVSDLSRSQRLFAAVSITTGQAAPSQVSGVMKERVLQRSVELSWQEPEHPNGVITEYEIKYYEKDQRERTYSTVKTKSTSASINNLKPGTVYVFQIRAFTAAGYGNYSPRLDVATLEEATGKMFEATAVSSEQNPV
- PROTOCOL DESCRIPTION: Selectivity ELISA of humanized antibodies for human Eph receptor
- Format: binding
- TEST SETTINGS: coated protein 1 nM
PROPERTY MEASURED: hEphA7-SEAP-: absorbance at 450 nm, percentage with respect to hEphA4-SEAP-His as 100%
Please state the value followed by its unit.

[
  {
    "MOLECULE": "91 (antibody, V domains shown, constant regions without entry; synthetic humanized antibody light chain variable region sequence; synthetic humanized antibody heavy chain variable region sequence) VL: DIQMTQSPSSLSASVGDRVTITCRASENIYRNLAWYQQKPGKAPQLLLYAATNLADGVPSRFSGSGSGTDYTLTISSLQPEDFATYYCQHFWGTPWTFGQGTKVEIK VH: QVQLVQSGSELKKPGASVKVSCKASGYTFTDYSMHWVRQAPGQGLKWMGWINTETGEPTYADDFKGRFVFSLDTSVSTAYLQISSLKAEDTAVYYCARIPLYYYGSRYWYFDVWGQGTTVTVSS",
    "TEST VALUE": "5.6%"
  }
]

Below: the item to evaluate.
Using the record for 133 (antibody, V domains shown, synthetic humanized antibody heavy chain variable region sequence; synthetic humanized antibody light chain variable region sequence) VH: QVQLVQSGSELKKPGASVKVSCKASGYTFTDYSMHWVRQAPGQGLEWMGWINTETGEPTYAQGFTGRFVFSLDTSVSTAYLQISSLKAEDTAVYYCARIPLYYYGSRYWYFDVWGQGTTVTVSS VL: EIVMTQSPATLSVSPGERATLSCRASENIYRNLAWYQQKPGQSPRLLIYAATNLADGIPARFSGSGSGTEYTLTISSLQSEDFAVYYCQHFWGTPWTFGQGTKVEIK , report its hEphA7-SEAP-: absorbance at 450 nm, percentage with respect to hEphA4-SEAP-His as 100%.
4.6%
